Reference source for all entries: ChEMBL document CHEMBL1126623

- Species on record: Gallus gallus
- Method: Tested for inhibition of agglutination of chicken erythrocytes in vitro
Endpoint Label: Ki

So, C=CC(=O)NCCSCCCC1(C(=O)O)CC(O)C(NC(C)=O)C(C(O)C(O)CO)O1 (stereo unspecified) ? Its Ki was 400 nM
